System: EGFR del19/T790M/C797S (Homo sapiens, UniProt P00533, C797S/DEL746-750/T790M)
Sequence (P00533 with tags, fused parts or gaps DEL746-750/T790M/C797S): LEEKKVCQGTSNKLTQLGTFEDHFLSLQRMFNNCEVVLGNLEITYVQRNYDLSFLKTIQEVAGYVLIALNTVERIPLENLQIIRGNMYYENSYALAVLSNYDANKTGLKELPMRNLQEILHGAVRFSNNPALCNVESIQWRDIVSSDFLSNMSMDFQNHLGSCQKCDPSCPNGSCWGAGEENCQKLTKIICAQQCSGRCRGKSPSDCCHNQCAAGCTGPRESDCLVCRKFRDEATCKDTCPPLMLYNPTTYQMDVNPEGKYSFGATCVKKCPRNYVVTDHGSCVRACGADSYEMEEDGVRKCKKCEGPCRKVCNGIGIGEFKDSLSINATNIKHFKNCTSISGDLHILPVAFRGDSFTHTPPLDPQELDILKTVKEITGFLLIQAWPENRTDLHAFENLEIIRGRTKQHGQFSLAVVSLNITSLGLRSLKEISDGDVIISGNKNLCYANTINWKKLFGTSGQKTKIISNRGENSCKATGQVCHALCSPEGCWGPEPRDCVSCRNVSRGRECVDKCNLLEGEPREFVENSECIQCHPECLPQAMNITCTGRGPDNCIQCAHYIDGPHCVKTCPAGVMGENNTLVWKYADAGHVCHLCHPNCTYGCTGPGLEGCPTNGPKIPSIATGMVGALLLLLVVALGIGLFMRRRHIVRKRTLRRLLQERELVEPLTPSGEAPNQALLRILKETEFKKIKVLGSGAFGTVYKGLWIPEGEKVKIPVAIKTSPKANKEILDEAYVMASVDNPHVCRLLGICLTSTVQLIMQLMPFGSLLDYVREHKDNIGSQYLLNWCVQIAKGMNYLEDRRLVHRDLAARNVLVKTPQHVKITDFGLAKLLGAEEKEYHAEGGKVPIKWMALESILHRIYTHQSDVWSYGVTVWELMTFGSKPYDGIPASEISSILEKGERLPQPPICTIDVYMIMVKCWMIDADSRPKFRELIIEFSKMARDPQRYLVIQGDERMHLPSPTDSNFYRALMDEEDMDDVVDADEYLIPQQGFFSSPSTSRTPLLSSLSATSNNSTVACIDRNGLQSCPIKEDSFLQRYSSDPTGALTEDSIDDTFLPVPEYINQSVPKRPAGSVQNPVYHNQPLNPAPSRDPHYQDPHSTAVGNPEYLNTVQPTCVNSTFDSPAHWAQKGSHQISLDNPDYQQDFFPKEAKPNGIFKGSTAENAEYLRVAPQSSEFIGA
Assay Details: Biochemical EGFR kinase assay (Lance Ultra TR-FRET), triple mutant del19/T790M/C797S
Assay Conditions: Km ATP; read-out: IC50 del19/T790M/C797S (nM) Km ATP
# maps each entry to its IC50
Respond with the bare value in nM.

Query string: IC50 lookup needed for CN(C)Cc1ccc(-c2cnc(Nc3ccnc(-c4cnn(S(=O)(=O)C5CC5)c4)n3)cc2N[C@H]2CC[C@@](C)(O)CC2)nc1 , thanks.
Result string: 0.2

###

System: EGFR L858R/T790M/C797S (Homo sapiens, UniProt P00533, C797S/L858R/T790M)
Sequence (P00533 25-1210 T790M/C797S/L858R): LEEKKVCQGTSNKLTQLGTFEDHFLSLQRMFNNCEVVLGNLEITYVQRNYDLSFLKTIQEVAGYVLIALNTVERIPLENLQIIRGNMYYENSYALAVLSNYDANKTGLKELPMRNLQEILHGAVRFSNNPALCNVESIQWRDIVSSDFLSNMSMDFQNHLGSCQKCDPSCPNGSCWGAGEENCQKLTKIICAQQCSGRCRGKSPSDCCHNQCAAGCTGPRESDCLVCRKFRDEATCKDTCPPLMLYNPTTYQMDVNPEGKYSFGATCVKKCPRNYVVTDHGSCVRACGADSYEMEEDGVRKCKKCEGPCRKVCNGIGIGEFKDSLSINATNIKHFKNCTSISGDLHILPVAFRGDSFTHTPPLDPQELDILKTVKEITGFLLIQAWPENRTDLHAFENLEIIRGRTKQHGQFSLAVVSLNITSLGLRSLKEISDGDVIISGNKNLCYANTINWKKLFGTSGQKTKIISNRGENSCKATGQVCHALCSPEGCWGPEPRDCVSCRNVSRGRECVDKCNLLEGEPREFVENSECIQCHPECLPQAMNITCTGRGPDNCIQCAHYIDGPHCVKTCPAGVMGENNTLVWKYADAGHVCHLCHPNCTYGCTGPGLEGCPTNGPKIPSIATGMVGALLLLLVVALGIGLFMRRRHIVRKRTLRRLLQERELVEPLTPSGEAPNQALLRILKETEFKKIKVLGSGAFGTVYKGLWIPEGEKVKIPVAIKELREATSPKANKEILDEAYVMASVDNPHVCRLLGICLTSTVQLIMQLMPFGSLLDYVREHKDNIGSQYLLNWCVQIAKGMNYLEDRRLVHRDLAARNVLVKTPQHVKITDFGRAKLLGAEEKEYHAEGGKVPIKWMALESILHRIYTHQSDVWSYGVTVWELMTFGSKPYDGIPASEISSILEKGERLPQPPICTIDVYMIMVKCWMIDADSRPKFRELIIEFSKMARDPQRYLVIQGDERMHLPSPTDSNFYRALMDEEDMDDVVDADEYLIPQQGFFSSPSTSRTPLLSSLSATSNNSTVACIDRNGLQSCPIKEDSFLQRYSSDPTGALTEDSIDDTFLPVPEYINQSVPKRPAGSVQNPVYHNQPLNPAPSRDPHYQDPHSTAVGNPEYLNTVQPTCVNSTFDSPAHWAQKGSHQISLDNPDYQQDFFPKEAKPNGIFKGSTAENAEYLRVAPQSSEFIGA
Assay Details: Biochemical EGFR kinase assay (Lance Ultra TR-FRET), triple mutant L858R/T790M/C797S
Assay Conditions: ATP at Km; read-out: IC50 L858R/T790M/C797S, Km ATP
pIC50: −log10 of the molar value.
Classification field: enter label 1 for pIC50 values not below 9, label 0 for values below it.

CC1(O)CCC(Nc2cc(Nc3ccnc(-c4cnn(S(=O)(=O)C5CC5)c4)n3)ncc2-c2cc(S(C)(=O)=O)ccn2)CC1 (stereo not drawn) [Example 198]; label 1
C[C@]1(O)CC[C@@H](Nc2cc(Nc3ccnc(-c4cnn(S(=O)(=O)C5CC5)c4)n3)ncc2-c2ccc(N3CC(F)(F)C3)cn2)CC1 [Example 224]; label 1
CC1(O)CCC(Nc2cc(Nc3ccnc(-c4cnn(S(=O)(=O)C5CC5)c4)n3)ncc2-c2ccc(C(C)(O)C(F)(F)F)cn2)CC1 (stereo not drawn) [Example 230]; label 1

Query string: Does the compound CC(C)(F)c1ccc(-c2cnc(Nc3ccnc(-c4cnn(S(=O)(=O)C5CC5)c4)n3)cc2N[C@H]2CC[C@@H](F)CC2)nc1 [Example 238] have recorded pIC50 that is 9 or more?
Result string: label 0

###

# maps each entry to its IC50
System: EGFR del19/C797S (Homo sapiens, UniProt P00533, C797S/DEL746-750)
Sequence (P00533 with tags, fused parts or gaps DEL746-750/C797S): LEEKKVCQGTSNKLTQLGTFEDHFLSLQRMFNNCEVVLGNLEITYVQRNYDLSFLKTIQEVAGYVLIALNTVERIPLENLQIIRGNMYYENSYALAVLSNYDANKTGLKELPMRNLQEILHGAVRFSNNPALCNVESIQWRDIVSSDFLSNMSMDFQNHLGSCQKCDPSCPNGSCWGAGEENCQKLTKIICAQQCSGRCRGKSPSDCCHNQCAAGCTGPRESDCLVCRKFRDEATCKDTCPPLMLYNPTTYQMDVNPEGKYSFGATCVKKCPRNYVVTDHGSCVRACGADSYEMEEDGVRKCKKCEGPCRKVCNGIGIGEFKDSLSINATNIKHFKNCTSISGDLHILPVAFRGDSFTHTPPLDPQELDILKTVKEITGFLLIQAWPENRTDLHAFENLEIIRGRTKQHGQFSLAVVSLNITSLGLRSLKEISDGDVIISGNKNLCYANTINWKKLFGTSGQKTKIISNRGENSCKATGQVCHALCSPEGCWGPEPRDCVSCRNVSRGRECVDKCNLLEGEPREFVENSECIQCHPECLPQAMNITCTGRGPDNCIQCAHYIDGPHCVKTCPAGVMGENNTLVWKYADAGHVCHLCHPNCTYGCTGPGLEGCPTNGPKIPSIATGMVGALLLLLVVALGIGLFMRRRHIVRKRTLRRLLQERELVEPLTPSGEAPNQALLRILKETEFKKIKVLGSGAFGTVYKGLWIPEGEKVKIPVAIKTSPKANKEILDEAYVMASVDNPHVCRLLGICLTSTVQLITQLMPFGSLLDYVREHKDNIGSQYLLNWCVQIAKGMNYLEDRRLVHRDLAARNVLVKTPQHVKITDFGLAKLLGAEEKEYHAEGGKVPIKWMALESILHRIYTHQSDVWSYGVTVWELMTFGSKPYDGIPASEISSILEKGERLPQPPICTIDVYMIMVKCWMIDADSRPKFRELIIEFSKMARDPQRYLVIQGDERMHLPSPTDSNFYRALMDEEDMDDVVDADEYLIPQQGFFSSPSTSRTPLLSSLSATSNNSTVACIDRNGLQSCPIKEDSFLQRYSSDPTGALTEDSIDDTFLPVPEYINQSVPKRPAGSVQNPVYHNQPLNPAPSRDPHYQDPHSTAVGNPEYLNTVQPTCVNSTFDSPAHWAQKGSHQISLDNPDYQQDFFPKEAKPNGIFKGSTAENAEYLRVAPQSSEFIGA
Assay Details: Biochemical EGFR kinase assay (Lance Ultra TR-FRET), double mutant del19/C797S
Assay Conditions: Km ATP; read-out: IC50 del19/C797S (nM) Km ATP
Respond with the bare value in nM.

Some molecules with known IC50 results, for comparison:
CC(C)(O)c1ccnc(-c2cnc(Nc3ccnc(-c4cnn(S(=O)(=O)C5CC5)c4)n3)cc2N[C@H]2CC[C@@](C)(O)CC2)c1; 0.4
O=S(=O)(C1CC1)n1cc(-c2nccc(Nc3cc(N[C@H]4CC[C@@H](CCO)CC4)c(-c4ccc(C(F)F)cn4)cn3)n2)cn1; 3.9

Turning now to a further record.
Query string: IC50 lookup needed for CN1CCC(Oc2cnc(-c3cnc(Nc4ccnc(-c5cnn(S(=O)(=O)C6CC6)c5)n4)cc3N[C@H]3CC[C@@H](F)CC3)cn2)CC1 , thanks.
Result string: 2.2

###

# maps each entry to its log10(IC50)
System: EGFR L858R/C797S (Homo sapiens, UniProt P00533, C797S/L858R)
Assay Details: Biochemical EGFR kinase assay (Lance Ultra TR-FRET), double mutant L858R/C797S
Assay Conditions: IC50 L858R/C797S, 100 μM ATP
Recall that a logarithmic scale is used here: each number is log10 of IC50 in nM.

Some compounds with known log10(IC50) results, for comparison:
C[C@]1(O)CC[C@@H](Nc2cc(Nc3ccnc(-c4cnn(S(=O)(=O)C5CC5)c4)n3)ncc2-c2ccc(N3CC(F)(F)C3)cn2)CC1; 2.23
Cc1ccc(-c2cnc(Nc3ccnc(-c4cnn(S(=O)(=O)C5CC5)c4)n3)cc2N[C@H]2CC[C@@](C)(O)CC2)nc1F; 0.56
O=S(=O)(C1CC1)n1cc(-c2nccc(Nc3cc(N[C@H]4CC[C@@H](NCCF)CC4)c(-c4cccc(F)n4)cn3)n2)cn1; 0.93

Query string: log10(IC50) lookup needed for CN(C)C[C@H]1CC[C@@H](Nc2cc(Nc3ccnc(-c4cnn(S(=O)(=O)C5CC5)c4)n3)ncc2-c2ccc(OC(F)(F)F)cn2)CC1 , thanks.
Result string: 0.72

###

# maps each entry to its log10 of IC50
System: EGFR del19/T790M/C797S (Homo sapiens, UniProt P00533, C797S/DEL746-750/T790M)
Assay Details: Biochemical EGFR kinase assay (Lance Ultra TR-FRET), triple mutant del19/T790M/C797S
Assay Conditions: Km ATP; read-out: IC50 del19/T790M/C797S (nM) Km ATP
Recall that a logarithmic scale is used here: each number is log10 of IC50 in nM.

CN(C)C[C@H]1CC[C@@H](Nc2cc(Nc3ccnc(-c4cnn(S(=O)(=O)C5CC5)c4)n3)ncc2-c2ccc(C(C)(C)O)nn2)CC1; -1.00
CN1CCC(Oc2ccc(-c3cnc(Nc4ccnc(-c5cnn(S(=O)(=O)C6CC6)c5)n4)cc3NC3CC(F)(F)C3)nc2)CC1; -0.70
CC(C)(O)[C@H]1CC[C@@H](Nc2cc(Nc3ccnc(-c4cnn(S(=O)(=O)C5CC5)c4)n3)ncc2-c2ccc(CN3CCC(O)CC3)cn2)CC1; -0.40

Query string: log10 of IC50 lookup needed for CN(C)C[C@H]1CC[C@@H](Nc2cc(Nc3ccnc(-c4cnn(S(=O)(=O)C5CC5)c4)n3)ncc2-c2cnc(N3CCC(F)(F)CC3)cn2)CC1 , thanks.
Result string: 0.20

Query string: log10 of IC50 lookup needed for CC(C)(O)c1ccc(-c2cnc(Nc3ccnc(-c4cnn(S(=O)(=O)C5CC5)c4)n3)cc2N[C@H]2CC[C@@H](CO)CC2)nn1 , thanks.
Result string: -1.00

###

System: EGFR wildtype (Homo sapiens)
Sequence (P00533 25-1210): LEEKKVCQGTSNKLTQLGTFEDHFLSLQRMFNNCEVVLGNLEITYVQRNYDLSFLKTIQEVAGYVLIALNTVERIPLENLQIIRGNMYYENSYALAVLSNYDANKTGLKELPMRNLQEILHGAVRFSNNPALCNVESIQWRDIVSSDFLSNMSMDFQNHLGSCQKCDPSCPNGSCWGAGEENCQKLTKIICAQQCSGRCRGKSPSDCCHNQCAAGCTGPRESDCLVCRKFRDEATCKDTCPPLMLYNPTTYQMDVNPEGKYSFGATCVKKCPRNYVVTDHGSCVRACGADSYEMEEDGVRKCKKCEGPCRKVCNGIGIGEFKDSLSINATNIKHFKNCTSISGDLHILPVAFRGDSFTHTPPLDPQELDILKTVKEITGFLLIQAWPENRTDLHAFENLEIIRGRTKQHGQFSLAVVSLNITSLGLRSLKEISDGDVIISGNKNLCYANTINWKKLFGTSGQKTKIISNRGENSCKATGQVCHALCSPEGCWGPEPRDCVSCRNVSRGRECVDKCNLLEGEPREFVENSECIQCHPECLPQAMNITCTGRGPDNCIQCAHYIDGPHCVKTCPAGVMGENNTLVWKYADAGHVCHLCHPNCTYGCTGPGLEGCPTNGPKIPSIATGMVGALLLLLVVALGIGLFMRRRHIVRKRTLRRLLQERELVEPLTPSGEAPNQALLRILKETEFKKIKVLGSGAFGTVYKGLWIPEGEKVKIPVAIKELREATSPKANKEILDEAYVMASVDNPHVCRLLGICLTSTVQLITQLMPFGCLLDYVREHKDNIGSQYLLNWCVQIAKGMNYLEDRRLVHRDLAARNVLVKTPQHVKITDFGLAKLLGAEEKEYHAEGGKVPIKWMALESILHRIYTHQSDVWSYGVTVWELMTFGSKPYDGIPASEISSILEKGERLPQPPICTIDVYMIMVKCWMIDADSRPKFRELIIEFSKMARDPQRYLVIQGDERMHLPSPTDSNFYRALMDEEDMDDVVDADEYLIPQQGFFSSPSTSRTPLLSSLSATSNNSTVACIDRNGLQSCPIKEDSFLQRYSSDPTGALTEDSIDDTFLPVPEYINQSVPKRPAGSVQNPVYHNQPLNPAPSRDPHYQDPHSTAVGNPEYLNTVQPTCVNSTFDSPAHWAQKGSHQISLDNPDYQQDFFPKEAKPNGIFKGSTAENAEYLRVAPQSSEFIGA
Assay Details: Biochemical EGFR kinase assay (Lance Ultra TR-FRET), wildtype
Assay Conditions: ATP at Km; read-out: IC50 WT, Km ATP
Observable: pIC50
// pIC50: -log10(molar conc.)

CN1CCC(Oc2ccc(-c3cnc(Nc4ccnc(-c5cnn(S(=O)(=O)C6CC6)c5)n4)cc3NC3CCC(F)(F)CC3)nc2)CC1; 8.72
C[C@]1(O)CC[C@@H](Nc2cc(Nc3nc(-c4cnn(S(=O)(=O)C5CC5)c4)ncc3F)ncc2-c2ccc(CC(F)(F)F)cn2)CC1; 6.61
CN(C)C[C@H]1CC[C@@H](Nc2cc(Nc3ccnc(-c4cnn(S(=O)(=O)C5CC5)c4)n3)ncc2-c2cc(NC3CC(F)(F)C3)ccn2)CC1; 9.10
CN(C)S(=O)(=O)n1cc(-c2nccc(Nc3cc(NC4CCC(C)(O)CC4)c(-c4ccc(C(C)(O)C(F)(F)F)cn4)cn3)n2)cn1 (stereo not drawn); 7.81
CN1CCC(Oc2ccc(-c3cnc(Nc4ccnc(-c5cnn(S(=O)(=O)C6CC6)c5)n4)cc3N[C@H]3CC[C@@](C)(O)CC3)nc2)CC1; 9.52

Query string: pIC50 lookup needed for CN1CCN(C(=O)c2ccc(-c3cnc(Nc4ccnc(-c5cnn(S(=O)(=O)C6CC6)c5)n4)cc3N[C@H]3CC[C@@](C)(O)CC3)nc2)CC1 , thanks.
Result string: 9.52

Query string: pIC50 lookup needed for C[C@]1(O)CC[C@@H](Nc2cc(Nc3ccnc(-c4cnn(S(=O)(=O)C5CC5)c4)n3)ncc2-c2cccc(F)n2)CC1 , thanks.
Result string: 8.42

Query string: pIC50 lookup needed for CN(C)C[C@H]1CC[C@@H](Nc2cc(Nc3ccnc(-c4cnn(S(=O)(=O)C5CC5)c4)n3)ncc2-c2ccc(C(C)(C)O)cn2)CC1 , thanks.
Result string: 9.70

Query string: pIC50 lookup needed for CN(C)CCNc1ccnc(-c2cnc(Nc3ccnc(-c4cnn(S(=O)(=O)C5CC5)c4)n3)cc2N[C@H]2CC[C@@](C)(O)CC2)c1 , thanks.
Result string: 8.54

Query string: pIC50 lookup needed for CN(C)C[C@H]1CC[C@@H](Nc2cc(Nc3ccnc(-c4cnn(S(=O)(=O)C5CC5)c4)n3)ncc2-c2cccc(F)n2)CC1 , thanks.
Result string: 9.30

Query string: pIC50 lookup needed for CC1(O)CCC(Nc2cc(Nc3ccnc(-c4cnn(S(=O)(=O)C5CC5)c4)n3)ncc2-c2ccc(C(C)(O)C(F)(F)F)cn2)CC1 (stereo not drawn) , thanks.
Result string: 8.30

###

System: EGFR del19/T790M/C797S (Homo sapiens, UniProt P00533, C797S/DEL746-750/T790M)
Assay Details: Biochemical EGFR kinase assay (Lance Ultra TR-FRET), triple mutant del19/T790M/C797S
Assay Conditions: ATP at Km; read-out: IC50 del19/T790M/C797S, Km ATP
Procedure: Biochemical EGFR kinase assays were conducted using Lance Ultra time-resolved fluorescence resonance energy transfer (TR-FRET) technology from Perkin-Elmer. […] Each kinase reactions were incubated at room temperature for 1 hour and then stopped by the addition of 4 μL of stop solution (10 mM EDTA). […] After 60 minutes incubation at room temperature the LANCE signal was measured on an EnVision Multilabel Reader (Perkin-Elmer). […]
# maps each entry to its IC50
Respond with the bare value in nM.

O=S(=O)(C1CC1)n1cc(-c2nccc(Nc3cc(NC4CCC(F)(CO)CC4)c(-c4cccc(F)n4)cn3)n2)cn1 (stereo not drawn); 0.5
CN(C)CC1CCC(Nc2cc(Nc3ccnc(-c4cnn(S(=O)(=O)C5CC5)c4)n3)ncc2-c2ccc(C(C)(O)C(F)(F)F)cn2)CC1 (stereo not drawn); 0.5
C[C@]1(O)CC[C@@H](Nc2cc(Nc3ccnc(-c4cnn(S(=O)(=O)C5CC5)c4)n3)ncc2-c2ccc(OCCO)cn2)CC1; 0.3

Query string: IC50 lookup needed for CC(C)Nc1cc(Nc2ccnc(-c3cnn(S(=O)(=O)C4CC4)c3)n2)ncc1-c1ccc(C(O)C(F)(F)F)cn1 (stereo not drawn) , thanks.
Result string: 9.8

Query string: IC50 lookup needed for O=S(=O)(C1CC1)n1cc(-c2nccc(Nc3cc(N[C@H]4CC[C@@H](CCO)CC4)c(-c4ccc(CC(F)(F)F)cn4)cn3)n2)cn1 , thanks.
Result string: 6.4

Query string: IC50 lookup needed for CS(=O)(=O)c1ccc(-c2cnc(Nc3ccnc(-c4cnn(S(=O)(=O)C5CC5)c4)n3)cc2N[C@H]2CC[C@@](C)(O)CC2)nc1 , thanks.
Result string: 0.1
